test-details: drug combination growth inhibition, ovarian cancer – cell-based, oncology-focused library, rucaparib conditional, profiling panel (AID 1508598)
cond: patient-derived ovarian cancer cells, CellTiter-Glo viability, 144 h; at 0.313 µM; OCI-P5x cells; without rucaparib; stronger effect = lower value
Here, each record is paired with measured viability data.
Write the number in % without appending the unit.

Known viability results, listed for orientation:
[
  {
    "compound": "O=NN(CCCl)C(=O)NC1CCCCC1",
    "output-unit": "%",
    "reported-value": 119
  },
  {
    "compound": "CCc1c2c(nc3ccc(OC(=O)N4CCC(N5CCCCC5)CC4)cc13)-c1cc3c(c(=O)n1C2)COC(=O)[C@]3(O)CC",
    "output-unit": "%",
    "reported-value": 89.6
  },
  {
    "compound": "CC[C@@]1(O)C(=O)OCc2c1cc1n(c2=O)Cc2cc3c(CN(C)C)c(O)ccc3nc2-1",
    "output-unit": "%",
    "reported-value": 4.1
  },
  {
    "compound": "COc1cc2c(Nc3ccc(Br)cc3F)ncnc2cc1OCC1CCN(C)CC1",
    "output-unit": "%",
    "reported-value": 103
  },
  {
    "compound": "Cc1nc2ccc(CN(C)c3ccc(C(=O)N[C@@H](CCC(=O)O)C(=O)O)s3)cc2c(=O)[nH]1",
    "output-unit": "%",
    "reported-value": 111
  },
  {
    "compound": "O=c1c(O)c(-c2ccc(O)c(O)c2)oc2cc(O)cc(O)c12",
    "output-unit": "%",
    "reported-value": 112
  },
  {
    "compound": "COc1cc2c(N3CCN(C(=O)Nc4ccc(OC(C)C)cc4)CC3)ncnc2cc1OCCCN1CCCCC1",
    "output-unit": "%",
    "reported-value": 90.4
  },
  {
    "compound": "NC(=O)NO",
    "output-unit": "%",
    "reported-value": 110
  },
  {
    "compound": "Cc1nc(-c2ccc(OCC(C)C)c(C#N)c2)sc1C(=O)O",
    "output-unit": "%",
    "reported-value": 109
  },
  {
    "compound": "Cn1nnc2c(C(N)=O)ncn2c1=O",
    "output-unit": "%",
    "reported-value": 109
  }
]

Name the recorded viability for CCC(C)n1ncn(-c2ccc(N3CCN(c4ccc(OC[C@H]5CO[C@](Cn6cncn6)(c6ccc(Cl)cc6Cl)O5)cc4)CC3)cc2)c1=O (some centres not stated) .
95.8

Could you share which viability value was measured for "CN(Cc1cnc2nc(N)nc(N)c2n1)c1ccc(C(=O)N[C@@H](CCC(=O)O)C(=O)O)cc1" ?
93.3

* * *

test-details: EMT-state selective cytotoxicity in co-culture – imaging, PC-3E GFP, TEM4-18 mCherry, primary screen (AID 1345086);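 also: cells exposed to compound for 72 h before imaging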
cond: PC-3E GFP / TEM4-18 mCherry co-culture, imaging cell counts; measured here: mesenchymal TEM4-18 mCherry cell survival; at 1 µM
readout-type: normalised cell number
A bare number is all that is needed in reply.

[
  {
    "molecule": "CCN(CC)C(C)CN1c2ccccc2Sc2ccccc21 (stereo not given)",
    "readout-type": "normalised cell number",
    "reported-value": 0.92
  },
  {
    "molecule": "NS(=O)(=O)c1cc(C(=O)O)c(NCc2ccco2)cc1Cl",
    "readout-type": "normalised cell number",
    "reported-value": 1.14
  },
  {
    "molecule": "OCc1ccccc1O",
    "readout-type": "normalised cell number",
    "reported-value": 0.96
  },
  {
    "molecule": "O=c1c(O)c(-c2ccc(O)c(O)c2)oc2cc(O)cc(O)c12",
    "readout-type": "normalised cell number",
    "reported-value": 1.04
  }
]

Consider the record given below.
What normalised cell number value was documented for this molecule, "COc1c2occc2c(OC)c2c(=O)cc(C)oc12" ?
0.95

* * *

test-details: growth inhibition of GSK3B-pretreated HCT116 cells – cell-based, CellTiter-Glo, 0.2 to 20 µM (AID 1117336)
cond: HCT116 viability after GSK3B inhibitor, at 20 µM, stronger effect = higher value
readout-type: viability decrease (%)
State just the number; it will be interpreted in %.

Look over these answered cases.
[
  {
    "molecule": "O=C1O[C@H](CO)[C@@H](O)[C@H](O)[C@H]1O",
    "viability decrease, %": -0.7
  },
  {
    "molecule": "NCCS(=O)(=O)O",
    "viability decrease, %": -1.3
  },
  {
    "molecule": "C#C[C@]1(O)CC[C@H]2[C@@H]3CCc4cc(O)ccc4[C@H]3CC[C@@]21C",
    "viability decrease, %": 45.9
  },
  {
    "molecule": "Oc1c(Cl)cc(Cl)cc1Sc1cc(Cl)cc(Cl)c1O",
    "viability decrease, %": 99.2
  },
  {
    "molecule": "C[C@]12CCC(=O)C=C1C=C[C@@H]1[C@@H]2CC[C@@]2(C)[C@H]1CC[C@@]21CCC(=O)O1",
    "viability decrease, %": 22.8
  },
  {
    "molecule": "COc1ccc2[nH]cc(CCNC(C)=O)c2c1",
    "viability decrease, %": -6.45
  },
  {
    "molecule": "CCOc1ccc(Cc2nccc3cc(OCC)c(OCC)cc23)cc1OCC",
    "viability decrease, %": -83
  },
  {
    "molecule": "CN(C)CCCSc1ccccc1NC(=O)/C=C/c1ccccc1",
    "viability decrease, %": -78.5
  }
]

What does the data say about its viability decrease? Entry: COC(=O)C1=C(C)NC(C)=C(C(=O)OC(C)C)C1c1cccc2nonc12 (stereo not drawn)
-4.5

Data request, read-out viability decrease, for "CN(C)/N=N/c1nc[nH]c1C(N)=O"
-107

Field request: viability decrease | item: "OC(CCN1CCCCC1)(c1ccccc1)c1ccccc1"
12.2

# viability decrease lookup, item "COc1cc2c(Nc3ccc(Br)cc3F)ncnc2cc1OCC1CCN(C)CC1"
-7.7

Need viability decrease, item CCOc1cc(N)c(Cl)cc1C(=O)NCC1CN(Cc2ccc(F)cc2)CCO1 (stereo not drawn)
71.6

Reported viability decrease for "C[N+](C)(C)CCOC(N)=O" : what is it?
1.3

Which viability decrease reading was recorded for the molecule "CC(=O)OCC(=O)[C@H]1CC[C@H]2[C@@H]3CCC4=CC(=O)CC[C@]4(C)[C@H]3CC[C@]12C" ?
0.8

For the molecule shown here, "CCc1nn(CCCN2CCN(c3cccc(Cl)c3)CC2)c(=O)n1CCOc1ccccc1" , give the reported viability decrease.
67.2

Report viability decrease for "N[C@@H](Cc1ccc(O)c(O)c1)C(=O)O" please.
68.9

Fill in the blank: the reported viability decrease of CC(Oc1c(Cl)cccc1Cl)C1=NCCN1 (stereo not drawn) is ____.
-16.2

Query: viability decrease; subject: "CCN(CC)CCOc1ccc(/C(=C(\Cl)c2ccccc2)c2ccccc2)cc1"
102

Recorded viability decrease for "CN(CCOc1ccc(NS(C)(=O)=O)cc1)CCc1ccc(NS(C)(=O)=O)cc1" , please?
12.3

# get_value(readout='viability decrease', item= "CC[C@@]1(O)C(=O)OCc2c1cc1n(c2=O)Cc2cc3c(CN(C)C)c(O)ccc3nc2-1" )
61.2

Look at this molecule and give its reported viability decrease. "O=c1[nH]cnc2c1ncn2[C@@H]1O[C@H](CO)[C@@H](O)[C@H]1O"
-12.4

Suppose we examine the molecule "CS(=O)(=O)c1ccc([C@@H](O)[C@@H](CO)NC(=O)C(Cl)Cl)cc1" ; what viability decrease value has been reported?
-30.5

* * *

Measured inhibition by item
test-details: growth inhibition, single agents and combos, HTB85, cell-based, BGB or cisplatin IC20 combos, synergistic combos for chromothripsis tumors (AID 1671453);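 also: cells exposed for 96 hours before readout; 0% = vehicle DMSO and 100% = high DMSO killing control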
cond: HTB85 osteosarcoma cells, drug combinations, measured here: with cisplatin IC20, at 5 µM, stronger effect = higher value
Answer format: numeric, % implied, no suffix.

[
  {
    "compound": "Cc1ccnc2c1NC(=O)c1cccnc1N2C1CC1",
    "inhibition [%]": -37.2
  },
  {
    "compound": "O=c1oc2c(O)c(O)cc3c(=O)oc4c(O)c(O)cc1c4c23",
    "inhibition [%]": -7.84
  }
]

Data request, read-out inhibition, for "CCN1CCN(c2cc3c(cc2F)c(=O)c(C(=O)O)cn3C2CC2)CC1"
-34

Which inhibition is reported for this compound? "O=C(O)CCCCCCCC(=O)O"
0.863

Query: inhibition; subject: CC(N)C12CC3CC(CC(C3)C1)C2 (configuration not stated)
-66.2

What inhibition value was documented for this compound, "O=NN(CCCl)C(=O)NCCCl" ?
11.5

Which inhibition is reported for this compound? "O=C(O)P(=O)(O)O"
-22.8

Tell me the measured inhibition of "O=c1c(O)c(-c2ccc(O)c(O)c2)oc2cc(O)cc(O)c12" , please.
-25

Any idea what its inhibition is? The compound is "Nc1[nH]c(=O)ncc1F"
-6.3

For the compound shown here, "CN(C)c1ccc(C(=C2C=CC(=[N+](C)C)C=C2)c2ccc(N(C)C)cc2)cc1" , give the reported inhibition.
97.1

Could you share which inhibition value was measured for "Cc1oncc1C(=O)Nc1ccc(C(F)(F)F)cc1" ?
0.987

Fill in the blank: the reported inhibition of "CCn1cc(C(=O)O)c(=O)c2cc3c(cc21)OCO3" is ____.
2.66
